Could you please report measured IC50 for the items listed next?
# System: HCV proteins in Rep5.1 cells (replicon cell line)
# protocol.summary: Inhibitory activity of HCV: cell-based ELISA in replicon cell line Rep5.1 (decrease of HCV proteins)
# Design: species or system hepatitis C virus
# experimental.context: Hepatitis C virus, 72 h, Rep5.1 cells, 72 hours with drug, decrease of HCV proteins measured by HCV antibody; Table 1; read-out: Level (IC50 values classified)

Recorded IC50, per entry:
CC1=C(C(=O)OCCc2ccc(F)c(F)c2)C(CF)NC(=S)N1 (stereo not shown) ... < 1000 nM
CC1=C(C(=O)OCCc2cc(F)cc(F)c2)C(CO)NC(=S)N1 (stereo not shown) ... 1000 to 10000 nM
CC1=C(C(=O)OCc2cc(F)cc(F)c2)C(CF)NC(=S)N1 (stereo not shown) ... 1000 to 10000 nM
CC1=C(C(=O)OCc2cc(Cl)ccc2[N+](=O)[O-])CNC(=S)N1 ... < 1000 nM
CC1=C(C(=O)OCCCCCc2ccccc2)C(CO)NC(=S)N1 (stereo not shown) ... < 1000 nM

State recorded IC50 for all listed molecules.
1. CC1=C(C(=O)OCCc2ccc(F)cc2Cl)C(CO)NC(=S)N1 (stereo not shown)
2. COc1c(C)cc(COC(=O)C2=C(C)NC(=S)NC2)cc1C
3. CC1=C(C(=O)OCc2ccccc2Cl)CNC(=S)N1
4. CC1=C(C(=O)OCc2ccc(S(C)(=O)=O)cc2)CNC(=S)N1

Reply |
1. 1000 to 10000 nM
2. < 1000 nM
3. < 1000 nM
4. > 20000 nM

Ask | Please report IC50 for the following molecule: `CC1=C(C(=O)OCc2ccc(-c3cc(C(F)(F)F)n(C)n3)s2)CNC(=S)N1`
Reply | < 1000 nM

====

# System: HCV proteins in Rep5.1 cells (replicon cell line)
# protocol.summary: Inhibitory activity of HCV: cell-based ELISA in replicon cell line Rep5.1 (decrease of HCV proteins)
# Set-up: species or system hepatitis C virus
# experimental.context: Hepatitis C virus, 72 h, Rep5.1 cells, 72 hours with drug, decrease of HCV proteins measured by HCV antibody; Table 1; read-out: Level (IC50 values classified)
pIC50: −log10 of the molar value.
measurement.type: pIC50

CC1=C(C(=O)OCc2cccc(Cl)c2)CNC(=S)N1 ... > 6.00

State recorded pIC50 for all listed compounds.
1. COCC1NC(=S)NC(C)=C1C(=O)OCCc1ccsc1 (centres unmarked)
2. CC1=C(C(=O)OCCC[S+]([O-])c2nc3ccccc3o2)C(CF)NC(=S)N1 (centres unmarked)
3. CC1=C(C(=O)OCC2CC=CCC2)C(CF)NC(=S)N1 (centres unmarked)

Reply |
< 4.70
5.00 to 6.00
5.00 to 6.00

State recorded pIC50 for all listed compounds.
1. CC1=C(C(=O)OCc2cccc(SC(F)(F)F)c2)C(CO)NC(=S)N1 (centres unmarked)
2. CC1=C(C(=O)OCc2ccc(-c3ccc([N+](=O)[O-])cc3)o2)CNC(=S)N1

Reply |
1. > 6.00
2. > 6.00

====

# Tested on: HCV proteins in Rep5.1 cells (replicon cell line)
# protocol.summary: Inhibitory activity of HCV: cell-based ELISA in replicon cell line Rep5.1 (decrease of HCV proteins)
# Design: species or system hepatitis C virus
# experimental.context: Hepatitis C virus, 72 h, Rep5.1 cells, 72 hours with drug, decrease of HCV proteins measured by HCV antibody; Table 1; read-out: Level (IC50 values classified)
measurement.type: IC50

Recorded IC50, per entry:
CC1=C(C(=O)OCCc2ccc(N(C)CC3CC3)c([N+](=O)[O-])c2)C(CO)NC(=S)N1 (stereo not shown) ... < 1000 nM
CC1=C(C(=O)OCC2COc3ccccc3O2)CNC(=S)N1 (stereo not shown) ... 1000 to 10000 nM
COc1ccccc1CCOC(=O)C1=C(C)NC(=S)NC1CF (stereo not shown) ... 1000 to 10000 nM
CC1=C(C(=O)OCCc2cc3c(C)nn(C)c3s2)CNC(=S)N1 ... > 20000 nM
CC1=C(C(=O)OCCCn2c(=O)sc3ccccc32)C(CF)NC(=S)N1 (stereo not shown) ... > 20000 nM

State recorded IC50 for all listed molecules.
1. CC1=C(C(=O)OCCc2ccsc2F)CNC(=S)N1
2. CC1=C(C(=O)OCc2cccc3ccccc23)CNC(=S)N1
3. CC1=C(C(=O)OCc2cc(F)cc(F)c2)C(CO)NC(=S)N1 (stereo not shown)
4. CC1=C(C(=O)OC(C)Cc2ccsc2Br)C(CO)NC(=S)N1 (stereo not shown)
5. CC1=C(C(=O)OCCCc2ccsc2)CNC(=S)N1

Reply |
1. < 1000 nM
2. < 1000 nM
3. > 20000 nM
4. 1000 to 10000 nM
5. < 1000 nM

====

# Tested on: HCV proteins in Rep5.1 cells (replicon cell line)
# protocol.summary: Inhibitory activity of HCV: cell-based ELISA in replicon cell line Rep5.1 (decrease of HCV proteins)
# Set-up: species or system hepatitis C virus
# experimental.context: Hepatitis C virus, 72 h, Rep5.1 cells, 72 hours with drug, decrease of HCV proteins measured by HCV antibody; Table 1; read-out: Level (IC50 values classified)
pIC50: −log10 of the molar value.
Could you please report measured pIC50 for the items listed next?

Recorded pIC50, per entry:
CSc1ccc(COC(=O)C2=C(C)NC(=S)NC2)s1 ... 5.00 to 6.00
CC1=C(C(=O)OCCc2cccc(C)c2)C(CO)NC(=S)N1 (stereo not shown) ... 5.00 to 6.00

State recorded pIC50 for all listed molecules.
1. CC1=C(C(=O)OCc2cc(Cl)cc(Cl)c2)C(COS(C)(=O)=O)NC(=S)N1 (stereo not shown)
2. CC(=O)SCCOC(=O)OCC1NC(=S)NC(C)=C1C(=O)OCCc1cccc([N+](=O)[O-])c1 (stereo not shown)
3. CC1=C(C(=O)OCCCc2ccc(F)cc2)CNC(=S)N1
4. CC1=C(C(=O)OCCOC2CCc3ccccc32)CNC(=S)N1 (stereo not shown)
5. CC1=C(C(=O)OCC2CCCCC2)C(CF)NC(=S)N1 (stereo not shown)

Reply |
["< 4.70", "5.00 to 6.00", "> 6.00", "5.00 to 6.00", "5.00 to 6.00"]

State recorded pIC50 for all listed molecules.
1. CC1=C(C(=O)OC2Cc3cscc3C2)CNC(=S)N1
2. CC1=C(C(=O)OCc2ccc([N+](=O)[O-])cc2)CNC(=S)N1
3. CC1=C(C(=O)OCCc2cccc(C)c2)CNC(=S)N1

Reply |
< 4.70
5.00 to 6.00
> 6.00

====

# System: HCV proteins in Rep5.1 cells (replicon cell line)
# protocol.summary: Inhibitory activity of HCV: cell-based ELISA in replicon cell line Rep5.1 (decrease of HCV proteins)
# Parameters: species or system hepatitis C virus
# experimental.context: Hepatitis C virus, 72 h, Rep5.1 cells, 72 hours with drug, decrease of HCV proteins measured by HCV antibody; Table 1; read-out: Level (IC50 values classified)
pIC50: −log10 of the molar value.
Could you please report measured pIC50 for the items listed next?

Recorded pIC50, per entry:
CC1=C(C(=O)OC2CCc3c2csc3Cl)CNC(=S)N1 (stereo not drawn) ... > 6.00
CCCCC(C)OC(=O)C1=C(C)NC(=S)NC1 (stereo not drawn) ... > 6.00
CC1=C(C(=O)OCCCCc2ccsc2)C(CO)NC(=S)N1 (stereo not drawn) ... 5.00 to 6.00
CC1=C(C(=O)OCc2ccc(C)s2)CNC(=S)N1 ... 4.70 to 5.00
CC1=C(C(=O)OCCCc2cccs2)C(CF)NC(=S)N1 (stereo not drawn) ... 5.00 to 6.00
CC1=C(C(=O)OC2CCc3c(Cl)sc(Cl)c32)CNC(=S)N1 (stereo not drawn) ... > 6.00

State recorded pIC50 for all listed molecules.
1. CCc1ccc(COC(=O)C2=C(C)NC(=S)NC2)o1
2. CSc1ccccc1COC(=O)C1=C(C)NC(=S)NC1
3. CCOc1ccccc1CCOC(=O)C1=C(C)NC(=S)NC1

Reply |
1: 4.70 to 5.00; 2: 5.00 to 6.00; 3: > 6.00

State recorded pIC50 for all listed molecules.
1. COc1ccc(COC(=O)C2=C(C)NC(=S)NC2CF)cc1Cl (stereo not drawn)
2. CC1=C(C(=O)OCCCCSc2nc3ccccc3s2)C(CO)NC(=S)N1 (stereo not drawn)
3. CCc1ccc(CCOC(=O)C2=C(C)NC(=S)NC2)s1
4. C=C(Cl)COC(=O)C1=C(C)NC(=S)NC1
5. CC1=C(C(=O)OCCc2ccc(F)c(C)c2)C(CO)NC(=S)N1 (stereo not drawn)
6. CCn1c2ccccc2c2cc(COC(=O)C3=C(C)NC(=S)NC3)ccc21
7. O=C(OCCc1ccsc1)C1=C(CF)NC(=S)NC1
8. CC1=C(C(=O)OCCc2cccc([N+](=O)[O-])c2)C(COC(=O)c2ccccc2)NC(=S)N1 (stereo not drawn)

Reply |
5.00 to 6.00
> 6.00
> 6.00
5.00 to 6.00
> 6.00
> 6.00
5.00 to 6.00
5.00 to 6.00

State recorded pIC50 for all listed molecules.
1. CC1=C(C(=O)OCCc2cccc(Cl)c2)C(COC(=O)OCC2COC(=O)O2)NC(=S)N1 (stereo not drawn)
2. CC1=C(C(=O)OCCCc2ccco2)C(CF)NC(=S)N1 (stereo not drawn)
3. CC1=C(C(=O)OCc2cccc(C#N)c2)CNC(=S)N1
4. CC1=C(C(=O)OCCc2ccsc2)C(c2cnc[nH]2)NC(=S)N1 (stereo not drawn)

Reply |
1: > 6.00; 2: 5.00 to 6.00; 3: 4.70 to 5.00; 4: < 4.70

These entries and their values trace back to patent US20060116390A1.
